Tested on: Leptosphaeria nodorum
Assay: Leptosphaeria nodorum test (wheat) / protective
Type: in vivo
Conditions: 500 ppm active compound, protective spray, evaluated 7-9 days after inoculation

| COMPOUND | efficacy |
| --- | --- |
| CCn1cc(-c2ccnc(NC(=O)CC(C)C)c2)c(-c2ccc(Cl)s2)n1 | 90% |
| CC(=O)Nc1cc(-c2cn(CC(C)C)nc2-c2ccc(Cl)s2)cc[n+]1[O-] | 70% |
| CCC(=O)Nc1cc(-c2c(-c3ccc(Cl)s3)nn(CC)c2C)ccn1 | 80% |
| CC(C)Cn1cc(-c2ccncc2)c(-c2cccs2)n1 | 94% |
| CC(C)n1cc(-c2ccnc(NC3COC3)n2)c(-c2ccc(Cl)s2)n1 | 80% |
| CC(C)Cn1cc(-c2cc(N)ncn2)c(-c2ccc(Cl)s2)n1 | 80% |
| FC(F)Cn1cc(-c2ccncc2)c(-c2ccc(Br)s2)n1 | 90% |
| CCC(C)n1cc(-c2ccncc2)c(-c2cc(Cl)cs2)n1 (stereo not shown) | 90% |
| CC(C)n1cc(-c2ccncc2)c(-c2ccc(Br)s2)n1 | 90% |
| CCC(CC)n1cc(-c2ccncc2)c(-c2ccc(Cl)s2)n1 | 78% |
| CC(=O)Nc1nccc(-c2cn(CC(C)C)nc2-c2ccc(Cl)s2)n1 | 94% |
| CCn1nc(-c2ccc(Cl)s2)c(-c2ccncc2)c1C | 95% |
| CCC(=O)Nc1cc(-c2cn(CC)nc2-c2ccc(Cl)s2)ccn1 | 80% |
| CCC(C)C(=O)Nc1cc(-c2cn(CC)nc2-c2ccc(Cl)s2)ccn1 (stereo not shown) | 70% |
| CCC(C)n1cc(-c2ccnc(NC(=O)C(C)C)n2)c(-c2ccc(Cl)s2)n1 (stereo not shown) | 89% |
| CCC(C)n1cc(-c2ccnc(NC(=O)C(C)C)c2)c(-c2ccc(Cl)s2)n1 (stereo not shown) | 80% |
| CCC(C)n1cc(-c2ccnc(NC(=O)C3CC3)c2)c(-c2ccc(Cl)s2)n1 (stereo not shown) | 80% |
| CCC(CC)n1cc(-c2ccncc2)c(-c2ccc(Br)s2)n1 | 70% |
| Cn1cc(-c2ccnc(NC(=O)Cc3ccccc3)c2)c(-c2ccc(Cl)s2)n1 | 70% |

* * *

compounds and their reported % inhibition fungal growth at 50 μM
System: Fusarium proliferatum
Assay: Production of fumonisin FB1 by Fusarium proliferatum (microtiter plate, HPLC-MS/MS and OD620)
Assay type: cell-based
Settings: Fusarium proliferatum, OD620 at start and after 5 days
MEASURED_PROPERTY: % inhibition fungal growth at 50 μM

| COMPOUND | TARGET | RESULT_VALUE |
| --- | --- | --- |
| CCC(C)n1ncc(-c2ccncc2)c1-c1ccc(F)s1 (centres unmarked) | Fusarium proliferatum | 1% |
| Clc1ccc(-c2nn(Cc3ccccc3)cc2-c2ccncn2)s1 | Fusarium proliferatum | 0% |
| CCC(C)n1cc(-c2ccnc(NC(C)=O)c2)c(-c2ccc(Cl)s2)n1 (centres unmarked) | Fusarium proliferatum | 86% |
| Clc1ccc(-c2n[nH]cc2-c2ccncc2)s1 | Fusarium proliferatum | 41% |
| CC#Cc1c(-c2ccncc2)c(-c2ccc(Cl)s2)nn1Cc1ccc(OC)cc1 | Fusarium proliferatum | 21% |

* * *

System: Pyrenophora teres
Test: In vivo test on Pyrenophora teres (barley net blotch)
Conditions: dose of 500 ppm; barley plants; grading 12 days after contamination
MEASURED_PROPERTY: protection (%)

| COMPOUND | RESULT_VALUE |
| --- | --- |
| CCC(C)C(=O)Nc1cc(-c2cn(C(C)CC)nc2-c2ccc(Cl)s2)ccn1 (centres unmarked) [Example 228] | 90 |
| CC(C)OC(=O)Nc1cc(-c2cn(C)nc2-c2ccc(Cl)s2)ccn1 [Example 274] | 80 |
| CCC(=O)Nc1cc(-c2cn(CC)nc2-c2ccc(Cl)s2)ccn1 [Example 263] | 90 |
| Cn1cc(-c2ccnc(NC(=O)C(C)(C)O)c2)c(-c2ccc(Cl)s2)n1 [Example 208] | 80 |
| CC(C)C(=O)Nc1cc(-c2cn(C(C)C)nc2-c2ccc(Cl)s2)ccn1 [Example 257] | 95 |

* * *

Test system: Leptosphaeria nodorum
Assay: Leptosphaeria nodorum test (wheat) / protective
Type: in vivo
Details: 500 ppm active compound, protective spray, evaluated 7-9 days after inoculation

| MOLECULE | efficacy (%) |
| --- | --- |
| CCC(=O)Nc1cc(-c2cn(C(C)C)nc2-c2cccs2)ccn1 | 70 |
| CCC(=O)Nc1nccc(-c2cn(C(C)CC)nc2-c2ccc(Cl)s2)n1 (centres unmarked) | 70 |
| Cn1cc(-c2ccnc(NC(=O)CC3CC3)c2)c(-c2ccc(Cl)s2)n1 | 80 |
| C#CCNc1nccc(-c2cn(C(C)C)nc2-c2ccc(Cl)s2)n1 | 70 |
| c1cc(-c2c[nH]nc2-c2cc3ccsc3s2)ccn1 | 78 |

* * *

System: Fusarium proliferatum
Test: Production of fumonisin FB1 by Fusarium proliferatum (microtiter plate, HPLC-MS/MS and OD620)
Assay type: cell-based
Conditions: 5 days at 20° C., HPLC-MS/MS
MEASURED_PROPERTY: % inhibition FB1 production at 50 μM (%)

| COMPOUND | TARGET | MEASURE_UNIT | RESULT_VALUE |
| --- | --- | --- | --- |
| CC(C)Cn1cc(-c2ccnc(NC(=O)C(C)C)n2)c(-c2ccc(Cl)s2)n1 | Fusarium proliferatum | % | 97 |
| COc1ccc(Cn2nc(-c3ccc(Cl)s3)c(-c3ccncc3)c2C2CC2)cc1 | Fusarium proliferatum | % | 87 |
| CCC(C)n1cc(-c2ccnc(NC(C)=O)c2)c(-c2ccc(Cl)s2)n1 (stereo not shown) | Fusarium proliferatum | % | 99 |
| CC#Cc1c(-c2ccncc2)c(-c2ccc(Cl)s2)nn1Cc1ccc(OC)cc1 | Fusarium proliferatum | % | 90 |

* * *

compounds and their reported log p
Details: pH 2.7
Marks after values point to notes of the source that are not given here.

| COMPOUND | log p |
| --- | --- |
| Cc1ccc(-c2nn(C(C)C)cc2-c2ccncc2)s1 [Example 199] | 1.5^[b] |
| CC(C)=CCn1cc(-c2ccncc2)c(-c2ccc(Cl)s2)n1 [Example 7] | 2.25^[b] |
| CC(C)n1cc(-c2ccnc(NC(=O)C3CC3)c2)c(-c2ccc(Cl)s2)n1 [Example 247] | 2.94^[b] |
| CCOC(=O)Nc1cc(-c2cn(C(C)C)nc2-c2ccc(Cl)s2)ccn1 [Example 259] | 3.46^[b] |
| CCn1cc(-c2ccnc(NC(=O)C3CC3)c2)c(-c2ccc(Cl)s2)n1 [Example 264] | 2.52^[b] |
| N#CCn1cc(-c2ccncc2)c(-c2sccc2Cl)n1 [Example 137] | 0.93^[b] |
| CCCCNC(=O)c1ccc(-c2[nH]ncc2-c2ccncc2)s1 [Example 37] | 0.0^[b] |
| N#CCCn1cc(-c2ccncc2)c(-c2ccc(Br)s2)n1 [Example 350] | 1.42^[b] |
| Cc1ccc(-c2[nH]ncc2-c2ccncc2)s1 [Example 35] | 0.77^[b] |
| CC(C)Nc1nccc(-c2cn(Cc3ccccc3F)nc2-c2ccc(Cl)s2)n1 [Example 121] | 3.39^[b] |
| Cn1cc(-c2ccncc2)c(-c2sccc2Cl)n1 [Example 142] | 0.78^[b] |
| CC(C)(C)n1ncc(-c2ccncc2)c1-c1ccc(Cl)s1 [Example 10] | 1.95^[b] |
| CC(C)Nc1nccc(-c2cn(CC#N)nc2-c2ccc(Cl)s2)n1 [Example 122] | 2.4^[b] |
| CC1(Cn2cc(-c3ccncc3)c(-c3ccc(Cl)s3)n2)CC1(Cl)Cl (centres unmarked) [Example 324] | 2.71^[b] |
| CC(C)n1cc(-c2ccnc(NC(=O)Cc3ccccc3)c2)c(-c2ccc(Cl)s2)n1 [Example 245] | 3.94^[b] |
| CC(C)n1cc(-c2ccnc(NC(=O)C(C)(C)C)c2)c(-c2ccc(Cl)s2)n1 [Example 233] | 3.87^[b] |
| CC(C)n1cc(-c2ccnc(NC(=O)c3ccccc3)c2)c(-c2ccc(Cl)s2)n1 [Example 260] | 4.03^[b] |
| CC(C)C(=O)Nc1cc(-c2cn(C)nc2-c2ccc(Cl)s2)ccn1 [Example 288] | 2.39^[b] |
| CC(=O)Nc1cc(-c2cn(/C=C/F)nc2-c2ccc(Cl)s2)ccn1 [Example 293] | 2.52^[b] |
| CC(n1ncc(-c2ccncc2)c1-c1ccc(Cl)s1)C(C)(C)C (centres unmarked) [Example 19] | 2.47^[b] |
| CCC(C)n1cc(-c2ccnc(C#CC3CC3)c2)c(-c2ccc(Cl)s2)n1 (centres unmarked) [Example 111] | 4.56^[b] |
| FC(F)Cn1cc(-c2ccncc2)c(-c2cc3ccsc3s2)n1 [Example 371] | 1.63^[b] |
| CCn1cc(-c2ccnc(NC(=O)C(C)(C)C)c2)c(-c2ccc(Cl)s2)n1 [Example 255] | 3.37^[b] |
| COCC(=O)Nc1cc(-c2cn(C(C)C)nc2-c2ccc(Cl)s2)ccn1 [Example 244] | 3.25^[b] |
| Cn1cc(-c2ccnc(Cl)c2)c(-c2ccc(Cl)s2)n1 [Example 313] | 3.37^[b] |
| CC(=O)c1ccc(-c2[nH]ncc2-c2ccncc2)s1 [Example 36] | 0.62^[b] |
| CCC(C)n1nc(-c2ccc(Cl)s2)c(-c2ccncc2)c1F (centres unmarked) [Example 213] | 2.61^[b] |
| Cn1cc(-c2ccncc2)c(-c2ccc(Cl)s2)n1 [Example 46] | 1.26^[b] |
| CCC(C)n1cc(-c2ccnc(Cl)c2)c(-c2ccc(Cl)s2)n1 (centres unmarked) [Example 318] | 4.89^[b] |
| CCC(C)n1cc(-c2ccncc2)c(-c2ccc(F)s2)n1 (centres unmarked) [Example 106] | 1.78^[b] |
| Clc1ccc(Cn2cc(-c3ccncc3)c(-c3cc4ccsc4s3)n2)s1 [Example 339] | 2.57^[b] |
| CCn1cc(-c2ccnc(NC(=O)OC(C)C)c2)c(-c2ccc(Cl)s2)n1 [Example 268] | 3.35^[b] |
| CCC(C)n1cc(-c2ccnc(NC(=O)C(C)(C)C)c2)c(-c2ccc(Cl)s2)n1 (centres unmarked) [Example 231] | 4.35^[b] |
| CCCc1c(-c2ccnc(NC(=O)CC)c2)c(-c2sccc2C)nn1C [Example 166] | 2.29^[b] |
| CC(C)n1cc(-c2ccnc(NC(=O)C3CCC3)c2)c(-c2ccc(Cl)s2)n1 [Example 243] | 3.37^[b] |
| C=CC(C)n1cc(-c2ccncc2)c(-c2ccc(F)s2)n1 (centres unmarked) [Example 376] | 1.73^[b] |
| Clc1ccc(-c2nn(C3CC3)cc2-c2ccncc2)s1 [Example 66] | 1.62^[b] |
| N#CCCn1cc(-c2ccncc2)c(-c2ccc(Cl)s2)n1 [Example 322] | 0.98^[b] |
